Target: Follicle-stimulating hormone receptor (Homo sapiens) (UniProt P23945)
Experiment: Agonistic efficacy in CHO-hFSHR cell-based cAMP accumulation assay relative to FSH(=100%)
Type: functional
Measured Efficacy of individual entries
recordedEndpoint: Efficacy (%)

> print(dat)
                                        smi  measuredvalue
1  CCCCCCCCN1C(=O)[C@H](Cc2ccc(-c3cccc(CN(CCCC)C(=O)OC)c3)cc2)N(C)C(=O)[C@@H]1C             49
2  CCCCCCCCN1C(=O)[C@H](Cc2ccc(-c3cccc(CN(CCCC)C(=O)NC)c3)cc2)N(C)C(=O)[C@@H]1C             72
3  CCCCCCN1C(=O)[C@H](Cc2ccc(-c3cccc(CN(CCCC)C(=O)NC)c3)cc2)N(C)C(=O)[C@@H]1C             85
4  CCCCCCCCN1C(=O)[C@H](Cc2ccc(-c3cccc(CN(CCCC)C(C)=O)c3)cc2)N(C)C(=O)[C@@H]1C             57
5  CCCCCCCCN1C(=O)[C@H](Cc2ccc(-c3cc(OC)c(OC)c(OC)c3)cc2)N(C)C(=O)[C@@H]1C             47
6  CCCCCCCN1C(=O)[C@H](Cc2ccc(-c3cc(OC)c(OC)c(OC)c3)cc2)N(C)C(=O)[C@@H]1C             54

---

This section presents compounds with their documented pEC50 values.
Target: Follicle-stimulating hormone receptor (Homo sapiens)
Sequence (P23945 whole entry): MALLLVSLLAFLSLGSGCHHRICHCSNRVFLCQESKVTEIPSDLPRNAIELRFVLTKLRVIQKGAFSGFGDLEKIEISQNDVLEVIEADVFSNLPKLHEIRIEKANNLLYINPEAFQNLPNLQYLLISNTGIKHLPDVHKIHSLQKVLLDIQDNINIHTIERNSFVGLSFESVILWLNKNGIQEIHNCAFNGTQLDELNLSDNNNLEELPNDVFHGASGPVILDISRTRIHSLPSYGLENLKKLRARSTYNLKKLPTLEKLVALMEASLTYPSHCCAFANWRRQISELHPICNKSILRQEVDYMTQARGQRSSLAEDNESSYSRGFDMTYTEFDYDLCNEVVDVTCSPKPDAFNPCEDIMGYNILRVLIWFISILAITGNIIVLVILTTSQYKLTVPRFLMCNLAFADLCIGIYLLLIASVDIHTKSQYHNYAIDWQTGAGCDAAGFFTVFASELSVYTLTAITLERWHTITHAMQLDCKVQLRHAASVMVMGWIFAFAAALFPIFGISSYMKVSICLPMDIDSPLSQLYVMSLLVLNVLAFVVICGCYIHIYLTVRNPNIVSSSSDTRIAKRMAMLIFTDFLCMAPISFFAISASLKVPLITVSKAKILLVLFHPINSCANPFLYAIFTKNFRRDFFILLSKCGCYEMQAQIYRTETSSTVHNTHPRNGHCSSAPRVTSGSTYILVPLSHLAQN
Assay: Agonistic activity against human follicle stimulating hormone receptor in CHO-hFSHR-luciferase assay.
Type: functional
pEC50: −log10 of the molar value.
recordedEndpoint: pEC50

> print(dat)
                                        smi  recordedendpoint  inequalitysign  measuredvalue
1  CCCCCCN1CC(=O)N(C)[C@@H](Cc2ccc(-c3cc(OC)c(OC)c(OC)c3)cc2)C1=O             pEC50               =           5.52
2  CCCCCCN1CC(=O)N(C)[C@H](Cc2ccc(-c3cc(OC)c(OC)c(OC)c3)cc2)C1=O             pEC50               <           4.30
3  CCCCCCCCN1C(=O)[C@H](Cc2ccc(-c3cccc(CN(CCCC)C(=O)NC)c3)cc2)N(C)C(=O)[C@@H]1C             pEC50               =           8.92
4  CCCCCCCCN1C(=O)[C@H](Cc2ccc(-c3cc(OC)c(OC)c(OC)c3)cc2)N(C)C(=O)[C@H]1C             pEC50               =           6.92
5  CCCCCCCCN1C(=O)[C@H](Cc2ccc(-c3cccc(CN(CCCC)C(=O)OC)c3)cc2)N(C)C(=O)[C@@H]1C             pEC50               =           8.57
